Test system: K. pneumoniae No. 42
experimentNotes: in vitro antibacterial activity, agar plate dilution method (MIC)
Type: cell-based
appliedConditions: Klebsiella pneumoniae, NO.42, 16 h, read-out: Minimum Inhibitory Concentration (MIC), *K. pneumoniae No. 42, lactamase-producing strain; 10^6 CFU/ml
resultType: MIC (µg/mL)
// return numeric value only (unit: µg/mL, not printed)

Note to self: MIC of C#CCO/N=C(\C(=O)N[C@@H]1C(=O)N2C(C(=O)O)=C(CSc3nnc(-c4ccc(O)c(O)c4)o3)CS[C@H]12)c1csc(N)n1 [compound 9] with K. pneumoniae No. 42 was 0.025

Recorded MIC for Nc1nc(/C(=N/OCc2ccccc2)C(=O)N[C@@H]2C(=O)N3C(C(=O)O)=C(CSc4nnc(-c5ccc(O)c(O)c5)s4)CS[C@H]23)cs1 [Ex. 32] on K. pneumoniae No. 42 was 0.0125

I looked up CC(C)(O/N=C(\C(=O)N[C@@H]1C(=O)N2C(C(=O)O)=C(CSc3nnc(-c4ccc(O)c(O)c4)o3)CS[C@H]12)c1csc(N)n1)C(=O)O [Ex. 11] and its MIC for K. pneumoniae No. 42 was 0.025

---

Tested on: E. coli NIHJ JC2
experimentNotes: in vitro antibacterial activity, agar plate dilution method (MIC)
Format: cell-based
appliedConditions: Escherichia coli, NIHJJC2; E. coli NIHJ JC2; 10^6 CFU/ml, 37° C., 16 hours; read-out: Minimum Inhibitory Concentration (MIC)
Where a name gives a salt, the structure may show the parent alone.
resultType: MIC (µg/mL)
Reply with just the number (in µg/mL).

Item CO/N=C(\C(=O)N[C@@H]1C(=O)N2C(C(=O)O)=C(CSc3nnc(-c4ccccc4)o3)CS[C@H]12)c1csc(N)n1 [compound 1, trifluoroacetate, reference compound] was tested on E. coli NIHJ JC2; the reported MIC is 0.78

Form: item CO/N=C(\C(=O)N[C@@H]1C(=O)N2C(C(=O)O)=C(CSc3nnc(-c4ccc(O)cc4)s3)CS[C@H]12)c1csc(N)n1 [compound 7, reference compound] ; test system E. coli NIHJ JC2; MIC: 0.39

Form field MIC for item CC(C)(O/N=C(\C(=O)N[C@@H]1C(=O)N2C(C(=O)O)=C(CSc3nnc(-c4ccc(O)cc4)o3)CS[C@H]12)c1csc(N)n1)C(=O)O [compound 4, reference compound] on E. coli NIHJ JC2: 3.12

# CO/N=C(\C(=O)N[C@@H]1C(=O)N2C(C(=O)O)=C(CSc3nnc(-c4ccccc4)s3)CS[C@H]12)c1csc(N)n1 [compound 5, trifluoroacetate, reference compound] with E. coli NIHJ JC2: MIC is 0.39

---

What MIC was measured for each of the following?
Test system: S. aureus 209P NIHJ-JC1
experimentNotes: in vitro antibacterial activity, agar plate dilution method (MIC)
Type: cell-based
appliedConditions: Staphylococcus aureus, 16 h, read-out: Minimum Inhibitory Concentration (MIC), S. aureus 209P NIHJ-JC1; 10^6 CFU/ml, 37° C., 16 hours
Express it in µg/mL; write the number only.

For reference, reported MIC for "C#CCO/N=C(\C(=O)N[C@@H]1C(=O)N2C(C(=O)O)=C(CSc3nnc(-c4ccc(O)c(O)c4)o3)CS[C@H]12)c1csc(N)n1" stands at 0.78

The value of MIC measured for the compound Nc1nc(C(=NOC2(C(=O)O)CC2)C(=O)NC2C(=O)N3C(C(=O)O)=C(CSc4nc(-c5ccc(O)c(O)c5)cs4)CSC23)cs1 (stereo not drawn) turned out to be 6.25

Item: "C#CCO/N=C(\C(=O)N[C@@H]1C(=O)N2C(C(=O)O)=C(CSc3nnc(-c4ccc(O)c(O)c4)s3)CS[C@H]12)c1csc(N)n1" | MIC: 0.78

# MIC (compound: "CC(C)O/N=C(\C(=O)N[C@@H]1C(=O)N2C(C(=O)O)=C(CSc3nnc(-c4ccc(O)c(O)c4)o3)CS[C@H]12)c1csc(N)n1" ) is 1.56

Reported MIC ( "Nc1nc(/C(=N/OCc2ccccc2CC(=O)O)C(=O)N[C@@H]2C(=O)N3C(C(=O)O)=C(CSc4nnc(-c5ccc(O)c(O)c5)o4)CS[C@H]23)cs1" ) = 6.25

MIC measured on C#CCON=C(C(=O)NC1C(=O)N2C(C(=O)O)=C(CSc3nc(C(=O)O)c(-c4ccc(O)c(O)c4)s3)CSC12)c1csc(N)n1 (stereo not drawn) = 6.25

---

Can you tell me log10 MIC for the items I'm about to list?
System: K. oxytoca GN10650
experimentNotes: in vitro antibacterial activity, agar plate dilution method (MIC)
Format: cell-based
appliedConditions: Klebsiella oxytoca, GN10650, 16 h, read-out: Minimum Inhibitory Concentration (MIC), *K. oxytoca GN10650, lactamase-producing strain; 10^6 CFU/ml
Structures can show the parent of a compound that is named as a salt.
Answers are given as log10 of MIC in µg/mL.

Memo: Nc1nc(C(=NOC2(C(=O)O)CC2)C(=O)NC2C(=O)N3C(C(=O)O)=C(CSc4nc(-c5ccc(O)c(O)c5)cs4)CSC23)cs1 (stereo not drawn) , reported log10 MIC: -1.00

CO/N=C(\C(=O)N[C@@H]1C(=O)N2C(C(=O)O)=C(CSc3nnc(-c4ccccc4)o3)CS[C@H]12)c1csc(N)n1 [compound 1, trifluoroacetate, reference compound] yielded log10 MIC of 0.80

Entry CC(C)(O/N=C(\C(=O)N[C@@H]1C(=O)N2C(C(=O)O)=C(CSc3nnc(-c4ccc(O)cc4)s3)CS[C@H]12)c1csc(N)n1)C(=O)O [compound 8, reference compound] — recorded log10 MIC = 0.80

// recorded log10 MIC for CC(C)ON=C(C(=O)NC1C(=O)N2C(C(=O)O)=C(CSc3nc(-c4ccc(O)c(O)c4)cs3)CSC12)c1csc(N)n1 (stereo not drawn) : -0.41

// log10 MIC value for "CC(C)(O/N=C(\C(=O)N[C@@H]1C(=O)N2C(C(=O)O)=C(CSc3nnc(-c4ccc(O)c(O)c4)o3)CS[C@H]12)c1csc(N)n1)C(=O)O" : -1.90

Value of log10 MIC reported for the compound CCON=C(C(=O)NC1C(=O)N2C(C(=O)O)=C(CSc3nc(C(=O)O)c(-c4ccc(O)c(O)c4)s3)CSC12)c1csc(N)n1 (stereo not drawn) is 0.49

The recorded log10 MIC for CON=C(C(=O)NC1C(=O)N2C(C(=O)O)=C(CSc3nc(-c4ccc(O)c(O)c4)cs3)CSC12)c1csc(N)n1 (stereo not drawn) is 0.19

According to the records, this compound CC(C)(O/N=C(\C(=O)N[C@@H]1C(=O)N2C(C(=O)O)=C(CSc3nc(-c4ccccc4)cs3)CS[C@H]12)c1csc(N)n1)C(=O)O [compound 11, reference compound] displays log10 MIC of 0.49

Quick note, log10 MIC for "CO/N=C(\C(=O)N[C@@H]1C(=O)N2C(C(=O)O)=C(CSc3nnc(-c4ccc(O)c(O)c4)s3)CS[C@H]12)c1csc(N)n1" landed at -0.11

---

Give measured MIC for each item. Keep answers brief.
Test system: E. cloacae 963
experimentNotes: in vitro antibacterial activity, agar plate dilution method (MIC)
Type: cell-based
appliedConditions: Enterobacter cloacae, 963, 16 h, read-out: Minimum Inhibitory Concentration (MIC), E. cloacae 963; 10^6 CFU/ml
The reply should contain only the number, in µg/mL.

# MIC (compound: CC(C)(O/N=C(\C(=O)N[C@@H]1C(=O)N2C(C(=O)O)=C(CSc3nnc(-c4ccc(O)cc4)s3)CS[C@H]12)c1csc(N)n1)C(=O)O [compound 8, reference compound] ) is 6.25

Per the records, this compound ( Nc1nc(/C(=N/OC(C(=O)O)c2ccc(O)c(O)c2)C(=O)N[C@@H]2C(=O)N3C(C(=O)O)=C(CSc4nnc(-c5ccc(O)c(O)c5)o4)CS[C@H]23)cs1 (stereo partly drawn) ) has MIC equal to 0.39

The compound listed as "Nc1nc(/C(=N/OC2(C(=O)O)CC2)C(=O)N[C@@H]2C(=O)N3C(C(=O)O)=C(CSc4nnc(-c5ccc(O)c(O)c5)o4)CS[C@H]23)cs1" has a reported MIC of 0.05

---

System: Ps. aeruginosa AKR17
experimentNotes: in vitro antibacterial activity, agar plate dilution method (MIC)
Type: cell-based, Pseudomonas aeruginosa
appliedConditions: Pseudomonas aeruginosa, 16 h; Ps. aeruginosa AKR17; 10^6 CFU/ml; read-out: Minimum Inhibitory Concentration (MIC)
Structures can show the parent of a compound that is named as a salt.
Answer each item with its documented MIC.

Note to self: MIC recorded for CC(C)(O/N=C(\C(=O)N[C@@H]1C(=O)N2C(C(=O)O)=C(CSc3nc(-c4ccccc4)cs3)CS[C@H]12)c1csc(N)n1)C(=O)O [compound 11, reference compound] was > 100 µg/mL

Per the record, CC(C)(O/N=C(\C(=O)N[C@@H]1C(=O)N2C(C(=O)O)=C(CSc3ncc(-c4ccccc4)o3)CS[C@H]12)c1csc(N)n1)C(=O)O [compound 22, reference compound] has MIC of > 100 µg/mL

Briefly, MIC measured for C=CCON=C(C(=O)NC1C(=O)N2C(C(=O)O)=C(CSc3nc(C(=O)O)c(-c4ccc(O)c(O)c4)s3)CSC12)c1csc(N)n1 (centres unmarked) : > 100 µg/mL

Reported MIC of CC(C)(O/N=C(\C(=O)N[C@@H]1C(=O)N2C(C(=O)O)=C(CSc3nc(-c4ccccc4)c(CC(=O)O)s3)CS[C@H]12)c1csc(N)n1)C(=O)O [compound 16, reference compound] : > 100 µg/mL

Entry under test: "CC(C)O/N=C(\C(=O)N[C@@H]1C(=O)N2C(C(=O)O)=C(CSc3nnc(-c4ccc(O)c(O)c4)o3)CS[C@H]12)c1csc(N)n1" . Its MIC was 50 µg/mL

CO/N=C(\C(=O)N[C@@H]1C(=O)N2C(C(=O)O)=C(CSc3nnc(-c4ccc(O)cc4)o3)CS[C@H]12)c1csc(N)n1 [compound 2, reference compound] yielded MIC of > 100 µg/mL

The recorded MIC for "CCO/N=C(\C(=O)N[C@@H]1C(=O)N2C(C(=O)O)=C(CSc3nnc(-c4ccc(O)c(O)c4)o3)CS[C@H]12)c1csc(N)n1" is > 100 µg/mL

The compound identified as Nc1nc(C(=NOC(C(=O)O)c2ccc(O)c(O)c2)C(=O)NC2C(=O)N3C(C(=O)O)=C(CSc4nnc(-c5ccc(O)c(O)c5)s4)CSC23)cs1 (single isomer, unassigned) registered its MIC at 0.1 µg/mL

Data point: CCON=C(C(=O)NC1C(=O)N2C(C(=O)O)=C(CSc3nc(C(=O)O)c(-c4ccc(O)c(O)c4)s3)CSC12)c1csc(N)n1 (centres unmarked) ; MIC = 50 µg/mL

Reported MIC for CO/N=C(\C(=O)N[C@@H]1C(=O)N2C(C(=O)O)=C(CSc3nnc(-c4ccccc4)o3)CS[C@H]12)c1csc(N)n1 [compound 1, trifluoroacetate, reference compound] was > 100 µg/mL

The measured MIC associated with "Nc1nc(/C(=N/OCc2ccccc2)C(=O)N[C@@H]2C(=O)N3C(C(=O)O)=C(CSc4nnc(-c5ccc(O)c(O)c5)o4)CS[C@H]23)cs1" reads 50 µg/mL

Reference source for all entries: patent US5061794A
